- tested_on: mitogen-activated protein kinase-activated protein kinase 2 (human MK2) (human, UniProt P49137 46-400, limits assumed)
- Sequence (P49137 46-400 limits assumed): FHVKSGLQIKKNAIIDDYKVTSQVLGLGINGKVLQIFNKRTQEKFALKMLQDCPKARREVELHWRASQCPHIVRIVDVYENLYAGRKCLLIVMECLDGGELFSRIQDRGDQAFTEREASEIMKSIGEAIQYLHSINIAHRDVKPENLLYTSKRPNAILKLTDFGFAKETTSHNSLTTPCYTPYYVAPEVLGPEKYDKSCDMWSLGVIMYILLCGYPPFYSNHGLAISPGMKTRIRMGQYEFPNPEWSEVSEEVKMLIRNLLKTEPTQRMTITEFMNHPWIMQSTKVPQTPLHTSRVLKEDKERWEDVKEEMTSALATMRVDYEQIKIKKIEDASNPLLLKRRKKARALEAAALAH
- assay_comment: cell-based or functional assay
Non-standard residues stand in square brackets, D forms with d. No end group written: not given here.
Binary call on % change in MK2 reaction velocity vs unsubstituted …, peptide at 100 µM: yes (1) from 50% upward, no (0) beneath that.

Worked examples, 6 binders total:
[
  {
    "binder": "KALARQLGVAA",
    "label": "no (0)"
  },
  {
    "binder": "KAL[dN]RQLGVAA-NH2 (N-terminus assumed; SMILES CC(C)C[C@H](NC(=O)[C@H](C)NC(=O)[C@@H](N)CCCCN)C(=O)N[C@H](CC(N)=O)C(=O)N[C@@H](CCCNC(=N)N)C(=O)N[C@@H](CCC(N)=O)C(=O)N[C@@H](CC(C)C)C(=O)NCC(=O)N[C@H](C(=O)N[C@@H](C)C(=O)N[C@@H](C)C(N)=O)C(C)C) [KALdNRQLGVAA]",
    "label": "no (0)"
  },
  {
    "binder": "KAANRQLGVAA",
    "label": "yes (1)"
  },
  {
    "binder": "KKKALNRQLGVAA",
    "label": "no (0)"
  },
  {
    "binder": "KALNAQLGVAA",
    "label": "yes (1)"
  },
  {
    "binder": "KALN[dR]QLGVAA-NH2 (N-terminus assumed; SMILES CC(C)C[C@H](NC(=O)[C@H](C)NC(=O)[C@@H](N)CCCCN)C(=O)N[C@@H](CC(N)=O)C(=O)N[C@H](CCCNC(=N)N)C(=O)N[C@@H](CCC(N)=O)C(=O)N[C@@H](CC(C)C)C(=O)NCC(=O)N[C@H](C(=O)N[C@@H](C)C(=O)N[C@@H](C)C(N)=O)C(C)C) [KALNdRQLGVAA]",
    "label": "yes (1)"
  }
]

Task: hey, is % change in MK2 reaction velocity vs unsubstituted …, peptide at 100 µM for this one >= 50%? KALNRQLAVAA
Output: no (0)

Task: Decide: % change in MK2 reaction velocity vs unsubstituted …, peptide at 100 µM of KALNRQLG[dV]AA-NH2 (N-terminus assumed; SMILES CC(C)C[C@H](NC(=O)[C@H](C)NC(=O)[C@@H](N)CCCCN)C(=O)N[C@@H](CC(N)=O)C(=O)N[C@@H](CCCNC(=N)N)C(=O)N[C@@H](CCC(N)=O)C(=O)N[C@@H](CC(C)C)C(=O)NCC(=O)N[C@@H](C(=O)N[C@@H](C)C(=O)N[C@@H](C)C(N)=O)C(C)C) [KALNRQLGdVAA] >= 50%?
Output: yes (1)

Task: // inclusive: % change in MK2 reaction velocity vs unsubstituted …, peptide at 100 µM at least 50%? input: KALNRQLGAAA
Output: yes (1)

Task: Assess whether reported % change in MK2 reaction velocity vs unsubstituted …, peptide at 100 µM for WLRRIKAWLRRIKA sits at 50% or higher.
Output: no (0)

Task: In plain terms: is recorded % change in MK2 reaction velocity vs unsubstituted …, peptide at 100 µM at least 50% for WLRRIKAWLRRIKALNRQLGV ?
Output: no (0)

Task: Could you please find out whether KA[dL]NRQLGVAA-NH2 (N-terminus assumed; SMILES CC(C)C[C@H](NC(=O)[C@H](CCC(N)=O)NC(=O)[C@H](CCCNC(=N)N)NC(=O)[C@H](CC(N)=O)NC(=O)[C@@H](CC(C)C)NC(=O)[C@H](C)NC(=O)[C@@H](N)CCCCN)C(=O)NCC(=O)N[C@H](C(=O)N[C@@H](C)C(=O)N[C@@H](C)C(N)=O)C(C)C) [KAdLNRQLGVAA] has % change in MK2 reaction velocity vs unsubstituted …, peptide at 100 µM that meets 50% or exceeds it?
Output: no (0)
